Listing of entries alongside the reported pIC50.
Molecular target: Kras and SOS1 (biotin-tagged human Kras loaded with GDP, His-tagged human SOS1) (Homo sapiens, UniProt P01116, G12D)
Construct: made in house; host or cells: E. coli (stated for Kras only)
Sequence (P01116 1-188 isoform P01116-2 G12D): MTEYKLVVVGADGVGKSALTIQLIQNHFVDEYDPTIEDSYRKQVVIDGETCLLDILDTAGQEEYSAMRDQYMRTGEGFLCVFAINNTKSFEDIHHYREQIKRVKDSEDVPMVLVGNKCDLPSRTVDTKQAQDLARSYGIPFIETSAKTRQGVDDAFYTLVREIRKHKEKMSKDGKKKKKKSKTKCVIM
Assay: Protein-protein interaction inhibition between Kras and SOS1 (KrasGl2D-SOS PPI) using AlphaScreen
Assay type: binding
Details: AlphaScreen; biotin-tagged human Kras loaded with GDP, His-tagged human SOS1; read-out: KRAS G12D-SOS PPI IC50
Positions of bridges follow the written chain, without caps; N, C: chain ends. Non-standard residues stand in square brackets, D forms with d. Residues, ends and D or L forms follow the SMILES beside them. *: point of attachment. hPhe(3-Cl-4-CF3) = N[C@@H](CCc1ccc(C(F)(F)F)c(Cl)c1)C(=O)O; NMePhe(4-CF3) = CN[C@@H](Cc1ccc(C(F)(F)F)cc1)C(=O)O; Pro(4,4-F2) = O=C(O)[C@@H]1CC(F)(F)CN1; NMeGly(cBu) = CN[C@H](C(=O)O)C1CCC1; NMeCha = CN[C@@H](CC1CCCCC1)C(=O)O; NMeChg = CN[C@H](C(=O)O)C1CCCCC1; NMeI = CC[C@H](C)[C@H](NC)C(=O)O; NMeD = CN[C@@H](CC(=O)O)C(=O)O; NMeL = CN[C@@H](CC(C)C)C(=O)O; NMeS = CN[C@@H](CO)C(=O)O; NMeA = CN[C@@H](C)C(=O)O; Piperidide = C1CCN(*)CC1; Pyrrolidide = C1CCN(*)C1; Ac5c = NC1(C(=O)O)CCCC1; Aze = O=C(O)[C@@H]1CCN1; Ac4c = NC1(C(=O)O)CCC1; Sar = CNCC(=O)O; Propyl = CCC*
Hey, just a heads up that pIC50 is the negative log base 10 of the concentration in molar.

>>> measured("CC[C@H](C)[C@@H]1NC(=O)[C@H](CC(C)C)N(C)C(=O)C[C@@H](C(=O)N2CCCCC2)N(C)C(=O)[C@H]([C@@H](C)CC)N(C)C(=O)C2(CCCC2)NC(=O)[C@@H]2CCCN2C(=O)[C@H](CCc2ccc(C(F)(F)F)c(Cl)c2)NC(=O)CN(C)C(=O)[C@H](Cc2ccc(C(F)(F)F)cc2)N(C)C(=O)[C@@H]2CCN2C(=O)[C@H](C)N(C)C1=O [Compound 630] ([NMeL]I[NMeA][Aze][NMePhe(4-CF3)][Sar][hPhe(3-Cl-4-CF3)]P[Ac5c][NMeI][NMeD]-Piperidide; lactam N-11)")
8.77
>>> measured("CC[C@H](C)[C@@H]1NC(=O)[C@H](CC(C)C)N(C)C(=O)C[C@@H](C(=O)N2CCCC2)N(C)C(=O)[C@H](C2CCCCC2)N(C)C(=O)C2(CCC2)NC(=O)[C@@H]2CC(F)(F)CN2C(=O)[C@H](CCc2ccc(C(F)(F)F)c(Cl)c2)NC(=O)CN(C)C(=O)[C@H](CC2CCCCC2)N(C)C(=O)CN(C)C(=O)CN(C)C1=O [Compound 1163] ([NMeL]I[Sar][Sar][NMeCha][Sar][hPhe(3-Cl-4-CF3)][Pro(4,4-F2)][Ac4c][NMeChg][NMeD]-Pyrrolidide; lactam N-11)")
9.34
>>> measured("CC[C@H](C)[C@@H]1NC(=O)[C@H](CC(C)C)N(C)C(=O)C[C@@H](C(=O)N2CCCCC2)N(C)C(=O)[C@H](C2CCCCC2)N(C)C(=O)C2(CCCC2)NC(=O)[C@@H]2CCCN2C(=O)[C@H](CCc2ccc(C(F)(F)F)c(Cl)c2)NC(=O)[C@H](C)N(C)C(=O)[C@H](CC2CCCCC2)N(C)C(=O)CN(C)C(=O)CN(C)C1=O [Compound 722] ([NMeL]I[Sar][Sar][NMeCha][NMeA][hPhe(3-Cl-4-CF3)]P[Ac5c][NMeChg][NMeD]-Piperidide; lactam N-11)")
6.38

Turning to the following molecule.
// pIC50 value for CCCOC[C@H]1C(=O)N(C)CC(=O)N[C@@H](CCc2ccc(C(F)(F)F)c(Cl)c2)C(=O)N2CCC[C@H]2C(=O)NC2(CCCC2)C(=O)N(C)[C@@H](C2CCCCC2)C(=O)N(C)[C@H](C(=O)N2CCCC2)CC(=O)N(C)[C@@H](C2CCC2)C(=O)N[C@@H]([C@@H](C)CC)C(=O)N(C)CC(=O)N(C)CC(=O)N1C [Compound 126] ([NMeGly(cBu)]I[Sar][Sar][NMeS](Propyl)[Sar][hPhe(3-Cl-4-CF3)]P[Ac5c][NMeChg][NMeD]-Pyrrolidide; lactam N-11) : 9.30

Values from patent US12371454B2
